Hey, just so you know, these numbers are from the supplement of paper PMC9170038.

Test system: MS2 coat protein
Test: apparent KD of MS2 coat protein; higher = weaker reporter binding
Settings: Eterna round: R107; input ligand: arginine 13.2 mM
Each record here notes measured apparent KD of MS2 coat protein.
# number only, unit nM dropped from output

# count of solved cases: 2
| MACROMOLECULE SEQUENCE | apparent KD of MS2 coat protein, nM |
| --- | --- |
| UGUCAAUCGCCGGAUACCAGCCUAACUGAAGGAAAUCUAAACAUGAGGAUCACCCAUGUAGGCCCUUGGCAGCCGAGUAAGUACA [theeternabot_exclusion_MS2_Theo_B_15] | 33.9 |
| GACGAGUAGACGGCCGCCACUAUGCUGCGCAGCCCUAGAAACGCACAUGAGGAUCACCCAUGUCUUAGGACCGGGUCGAACUUAA [theeternabot_sameState_MS2_Trp_B_48] | 47.7 |

So for UAUAACAUGAGGAUCACCCAUGUAAGUGAUACCAGAUAAAUAAUAGUCCCUUGGCAGCAUAUUGGGAAAAUGUAUAAUAUAUAUU [Same State - Theophylline A (Freestyle 1)] , the logged apparent KD of MS2 coat protein turned out to be 49.9

----------
Test system: MS2 coat protein
Test: apparent KD of MS2 coat protein; designed switch direction (-1 OFF switch, 1 ON switch): -1; higher = weaker reporter binding
Conditions: Eterna round: R95; input ligand: microRNA oligo, concentration not stated
Returns one of 1 (yes) or 0 (no); 1 (yes) when apparent KD of MS2 coat protein is >= 0.09 µM.

As a guide, the following entries are already answered.
| MACROMOLECULE SEQUENCE | CAT |
| --- | --- |
| ACGUUUUUUGAGGAUAUGCGACGUUCCUUCGUCGUAGAAGGCGAUACAUGAGGAUCACCCAUGUUUAUGGGCAU [LRO-Ex6-17] (puzzle: Exclusion 6) | 0 (no) |
| AGUACAAACACGAAAGUGUUUGUACAAUAAGCUUGUGGAACAUGAGGAUCACCCAUGUCCUCAUAAGCUCGUCUUAU [Mat - Sensor v3 - Turn-off var 2 - D29] (puzzle: Sensor v3, turn-off variant 2) | 0 (no) |
| CAGGAUAGAGGAUAUACAUAGAUACAGAUUCGUGUGAUCCUACAUGAGGAUCACCCAUGUAGAAGGCUAUCCUG [Fiskers Ex 2 - 23] (puzzle: Exclusion 2) | 1 (yes) |
| AAGAAACAUGAGGAUCACCCAUGUGAGGAUAUAGAAAGAAAGAAAAGAAAAGAAAGAACUAGAAGGCACAAAGA [JR_Exclu1_Sub030] (puzzle: Exclusion 1) | 0 (no) |
| UUUAUGUCAGGAUAUGAGUAGUAGAACAAUAGUACUACUACUCAGAAGGGACAUGAGGAUCACCCAUGUUCUUC [Fiskers Ex 4 Super stable 44 mod 23] (puzzle: Exclusion 4) | 0 (no) |

(Q) Could you verify whether the entry GGUUGGUGAGGAUAUACAUGAGGAUCACCCAUGUGAGAGAAAGAAGUGAGGAAGAAAAGUAGAAGGCGCUGACG [salish99_ex3_r3_054] (puzzle: Exclusion 3) shows apparent KD of MS2 coat protein of no less than 0.09 µM?
(A) 0 (no)

(Q) Check if apparent KD of MS2 coat protein >= 0.09 µM (inclusive). Item: CUUUAGUGAGGAUAUCAGUAGUAAUACAAUAGUAUUACUACUGAGAAGGCACAUGAGGAUCACCCAUGUUCUUC [Mat - Exclusion 4 - Mod of Omei - D77] (puzzle: Exclusion 4)
(A) 0 (no)

(Q) Can GCUUGGCGAGGAUAUACAUGAGGAUCACCCAUGUGAGAGAAAAAAGUGAGGAAGAAAAGUAGAAGGCGCUGAGG [Mat - Exclusion 3 - Mod of Salish D57] (puzzle: Exclusion 3) be said to have apparent KD of MS2 coat protein at or above 0.09 µM?
(A) 0 (no)

(Q) hey, is apparent KD of MS2 coat protein for this one >= 0.09 µM? CUUUUGUGAGGAUAUUAGUAGUAAAUAAAUAAAAUUACUACUUAGAAGGCACAUGAGGAUCACCCAUGUUCCUC [salish99_ex4_r3_043] (puzzle: Exclusion 4)
(A) 0 (no)

(Q) Does UAGUACAUCUAUGGGAGUAACAUGAGGAUCACCCAUGUAUGUCUUGUUUUUUGUUCGUCAUAGGCCUUUUGAUUGGC [JR_SV3TOV1_Sub028] (puzzle: Sensor v3, turn-off variant 1) have a reported apparent KD of MS2 coat protein of at least 0.09 µM?
(A) 1 (yes)
